target: Dual specificity mitogen-activated protein kinase kinase 6 (Homo sapiens)
Label key: Criterion met means ΔTm under 0.2 °C; Criterion not met means ΔTm of 0.2 °C or more.

O=C1c2ccccc2-[n+]2ccc3c([nH]c4ccccc43)c21 [FASCAPLYSIN CHLORIDE] | Criterion met
O=C1C=C2C(=Nc3c2c2c(c4c3=NC3=C4CCC=C3)C=NC=2)CC1 | Criterion not met
COc1cc(OC)c(/C=C2\C(=O)Nc3ccccc32)c(OC)c1 | Criterion met
COC1=C2C[C@@H](C)C[C@H](OC)[C@H](O)[C@@H](C)/C=C(\C)[C@H](OC(N)=O)[C@@H](OC)/C=C\C=C(/C)C(=O)NC(=CC1=O)C2=O | Criterion met
CN[C@@H]1CC2O[C@@](C)([C@@H]1OC)n1c3ccccc3c3c4c(c5c6ccccc6n2c5c31)C(=O)NC4 | Criterion not met

[Q] Given the entry O=C1NC(=O)c2c1c1c3ccccc3[nH]c1n1cncc21 [ISOGRANULATIMIDE] , would its reported ΔTm be below 0.2 °C?
[A] Criterion not met

[Q] Given the entry COc1cc(/C=C/C(=O)CC(=O)/C=C/c2ccc(O)c(OC)c2)ccc1O [CURCUMIN] , would its reported ΔTm be below 0.2 °C?
[A] Criterion not met

[Q] Given the entry `O=c1c(-c2ccc(F)cc2)c(-c2ccncc2)[nH]n1-c1ccc(Cl)cc1` , would its reported ΔTm be below 0.2 °C?
[A] Criterion not met

---

Serine/threonine-protein kinase VRK2 (Homo sapiens) (UniProt Q86Y07) ΔTm data
Sequence (Q86Y07 whole entry): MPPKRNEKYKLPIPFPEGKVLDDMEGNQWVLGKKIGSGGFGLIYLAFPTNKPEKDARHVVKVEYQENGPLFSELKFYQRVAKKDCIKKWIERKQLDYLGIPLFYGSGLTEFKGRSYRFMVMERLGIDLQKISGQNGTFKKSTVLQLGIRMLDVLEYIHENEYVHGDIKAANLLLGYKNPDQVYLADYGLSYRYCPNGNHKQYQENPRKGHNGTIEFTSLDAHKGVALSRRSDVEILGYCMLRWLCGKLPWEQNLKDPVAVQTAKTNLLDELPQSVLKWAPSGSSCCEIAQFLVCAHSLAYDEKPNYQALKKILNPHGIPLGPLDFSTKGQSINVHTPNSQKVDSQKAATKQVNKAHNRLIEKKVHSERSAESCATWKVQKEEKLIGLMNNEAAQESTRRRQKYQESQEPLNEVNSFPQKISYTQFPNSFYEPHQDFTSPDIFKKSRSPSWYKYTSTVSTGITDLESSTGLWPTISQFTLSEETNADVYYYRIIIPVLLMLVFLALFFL

NCCNS(=O)(=O)c1cccc2c(Cl)cccc12 | 0.1 °C

Response field ΔTm (Serine/threonine-protein kinase VRK2 (Homo sapiens) (UniProt Q86Y07)) for item `O=C1Nc2ccc(I)cc2/C1=C1/Nc2ccccc2/C1=N\O` : 4.3 °C

Response field ΔTm (Serine/threonine-protein kinase VRK2 (Homo sapiens) (UniProt Q86Y07)) for item `Cc1c2ccncc2c(C)c2c1[nH]c1ccccc12` : -0.7 °C

Response field ΔTm (Serine/threonine-protein kinase VRK2 (Homo sapiens) (UniProt Q86Y07)) for item `CCOc1cc2ncnc(Nc3cccc(Br)c3)c2cc1OCC` : 0.6 °C

---

biological target: Serine/threonine-protein kinase 26 (Homo sapiens)
Could you label it T if measured ΔTm is 1 °C or higher, and F otherwise?

# example entries with known answers
O=C(Nc1cccc(Nc2cc(Nc3cccc(C(F)(F)F)c3)ncn2)c1)C1CC1 | T
O=c1cc(N2CCOCC2)oc2c(-c3ccccc3)cccc12 | F
OC[C@H]1O[C@@H](n2cnc3cc(Cl)c(Cl)cc32)[C@H](O)[C@@H]1O | F
O=C1C(Cl)=C(N2C(=O)CCC2=O)C(=O)c2ccccc21 | F
Nc1ncnc2c1c(I)cn2[C@@H]1O[C@H](CO)[C@@H](O)[C@H]1O | T

As a next step, examine the compound that follows.
[Q] hey, is ΔTm for this one >= 1 °C? `Nc1cccc(-c2cc3c(Oc4cccc(O)c4)ncnc3[nH]2)c1`
[A] F

---

Biological target: Serine/threonine-protein kinase VRK1 (Homo sapiens) (UniProt Q99986)
Sequence (whole entry): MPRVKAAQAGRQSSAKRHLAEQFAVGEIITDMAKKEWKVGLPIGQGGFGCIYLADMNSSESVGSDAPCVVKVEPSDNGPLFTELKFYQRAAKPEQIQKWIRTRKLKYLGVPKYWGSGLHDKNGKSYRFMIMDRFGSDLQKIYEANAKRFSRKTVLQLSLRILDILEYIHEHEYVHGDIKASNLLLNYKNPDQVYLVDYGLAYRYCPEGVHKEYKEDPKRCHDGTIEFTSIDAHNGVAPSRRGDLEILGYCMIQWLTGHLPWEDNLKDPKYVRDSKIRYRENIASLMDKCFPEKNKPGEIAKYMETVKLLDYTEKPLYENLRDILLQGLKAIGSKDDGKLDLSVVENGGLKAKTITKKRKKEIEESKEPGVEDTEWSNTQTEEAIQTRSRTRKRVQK
Quantity: ΔTm
Value and unit, in that order.

Please review the entries below; each comes with its answer.
Oc1ccc(-c2nc(-c3ccc(F)cc3)c(-c3ccncc3)[nH]2)cc1 | 0 °C
Oc1cc(O)cc(/C=C/c2ccc(O)c(O)c2)c1 [PICEATANNOL] | 0.2 °C
COc1ccc2c(c[n+](C)c3c4cc5c(cc4ccc23)OCO5)c1OC [CHELERYTHRINE CHLORIDE] | -0.1 °C
CC(C)(C)n1nc(-c2cccc3ccccc23)c2c(N)ncnc21 | 0.7 °C

Then this compound:
Record summary for `CC(C)n1cnc2c(NCc3ccccc3)nc(NCCCO)nc21` : reported ΔTm = -0.1 °C
